B1: Tyrosine-protein kinase Lyn (Homo sapiens), P07948 (parent)
chain: MGCIKSKGKDSLSDDGVDLKTQPVRNTERTIYVRDPTSNKQQRPVPESQLLPGQRFQTKDPEEQGDIVVALYPYDGIHPDDLSFKKGEKMKVLEEHGEWWKAKSLLTKKEGFIPSNYVAKLNTLETEEWFFKDITRKDAERQLLAPGNSAGAFLIRESETLKGSFSLSVRDFDPVHGDVIKHYKIRSLDNGGYYISPRITFPCISDMIKHYQKQADGLCRRLEKACISPKPQKPWDKDAWEIPRESIKLVKRLGAGQFGEVWMGYYNNSTKVAVKTLKPGTMSVQAFLEEANLMKTLQHDKLVRLYAVVTREEPIYIITEYMAKGSLLDFLKSDEGGKVLLPKLIDFSAQIAEGMAYIERKNYIHRDLRAANVLVSESLMCKIADFGLARVIEDNEYTAREGAKFPIKWTAPEAINFGCFTIKSDVWSFGILLYEIVTYGKIPYPGRTNADVMTALSQGYRMPRVENCPDELYDIMKMCWKEKAEERPTFDYLQSVLDDFYTATEGQYQQQP
partner: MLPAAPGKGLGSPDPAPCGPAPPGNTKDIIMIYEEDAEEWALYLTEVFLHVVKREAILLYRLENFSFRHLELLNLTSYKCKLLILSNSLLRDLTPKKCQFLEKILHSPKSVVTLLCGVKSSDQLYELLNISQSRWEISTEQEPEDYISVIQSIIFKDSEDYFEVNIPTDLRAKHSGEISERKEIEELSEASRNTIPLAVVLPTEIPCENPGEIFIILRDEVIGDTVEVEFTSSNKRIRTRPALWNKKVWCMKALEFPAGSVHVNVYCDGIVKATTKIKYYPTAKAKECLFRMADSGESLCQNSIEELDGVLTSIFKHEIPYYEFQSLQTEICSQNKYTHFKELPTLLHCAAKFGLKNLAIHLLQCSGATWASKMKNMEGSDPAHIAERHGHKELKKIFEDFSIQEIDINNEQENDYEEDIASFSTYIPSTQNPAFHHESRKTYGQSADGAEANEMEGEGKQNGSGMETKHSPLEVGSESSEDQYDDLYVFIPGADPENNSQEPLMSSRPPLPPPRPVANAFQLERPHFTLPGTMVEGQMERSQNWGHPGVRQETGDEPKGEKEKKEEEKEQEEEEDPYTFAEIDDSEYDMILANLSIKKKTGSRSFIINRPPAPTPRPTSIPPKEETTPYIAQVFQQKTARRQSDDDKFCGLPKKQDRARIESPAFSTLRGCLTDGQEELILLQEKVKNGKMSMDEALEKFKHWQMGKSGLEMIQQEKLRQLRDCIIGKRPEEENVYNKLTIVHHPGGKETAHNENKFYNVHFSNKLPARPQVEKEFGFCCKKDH

variants of: B1; conditions: with bank1_human BANK1, Q8NDB2

Mut: Y508F
effect of a mutation on the interaction: with no effect
//
Mut: R156D;S158F
effect of a mutation on the interaction: with no effect
//
Mut: P114L
effect of a mutation on the interaction: with no effect

Where these numbers come from: IntAct's records for PubMed 11782428
